- ASSAY SYSTEM: human mAChRM1 (Homo sapiens, UniProt P11229)
- Construct: host or cells: CHO-K1
- Sequence (P11229 whole entry): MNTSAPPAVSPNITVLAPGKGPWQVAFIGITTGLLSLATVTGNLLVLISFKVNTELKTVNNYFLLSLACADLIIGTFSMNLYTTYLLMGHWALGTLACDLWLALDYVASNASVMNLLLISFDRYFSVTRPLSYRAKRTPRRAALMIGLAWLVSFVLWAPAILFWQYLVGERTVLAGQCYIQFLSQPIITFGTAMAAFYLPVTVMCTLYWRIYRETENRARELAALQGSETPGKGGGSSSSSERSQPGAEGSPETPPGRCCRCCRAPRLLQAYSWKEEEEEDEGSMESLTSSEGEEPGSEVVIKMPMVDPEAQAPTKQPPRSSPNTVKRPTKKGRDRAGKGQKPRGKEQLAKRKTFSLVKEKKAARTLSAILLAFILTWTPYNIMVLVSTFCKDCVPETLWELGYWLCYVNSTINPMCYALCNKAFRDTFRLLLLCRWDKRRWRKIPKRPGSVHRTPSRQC
- ASSAY TEXT: mAChR M1 cell-based functional assay (calcium mobilization), agonist activity upon compound addition, Emax relative to acetylcholine maximum
- RECORDED CONDITIONS: calcium mobilization upon compound addition
EXPERIMENTAL ENDPOINT: Agonist Activity Human M1 EC50

Look over these answered cases.
{"columns": ["MOLECULE", "EXPERIMENTAL ENDPOINT", "DATA VALUE"],
 "data": [
  ["Cn1ncc2c(-c3cc(F)c(CN4Cc5ncccc5C4=O)c(F)c3)ccc(C(C)(C)O)c21", "Agonist Activity Human M1 EC50", "inactive"],
  ["Cc1cc(-c2cc(C(C)(C)O)cc3nn[nH]c23)cc(F)c1CN1Cc2ncccc2C1=O", "Agonist Activity Human M1 EC50", "inactive"],
  ["CC(C)(O)c1ccc(-c2cc(F)c(CN3Cc4ncccc4C3=O)c(F)c2)c2cccnc12", "Agonist Activity Human M1 EC50", "inactive"],
  ["CC(C)n1cc2c(-c3cc(F)c(CN4Cc5ncccc5C4=O)c(F)c3)ccc(C(C)(C)O)c2n1", "Agonist Activity Human M1 EC50", "inactive"]
]}

Query string: Item Cn1cc2c(-c3cc(F)c(CN4Cc5cccc(F)c5C4=O)c(F)c3)ccc(C3(O)COC3)c2n1 with human mAChRM1 (Homo sapiens, UniProt P11229) - Agonist Activity Human M1 EC50?
Result string: inactive

Query string: Item Cn1cc2c(-c3cc(F)c(CN4Cc5cccc(F)c5C4=O)c(F)c3)ccc(C(C)(O)C(F)F)c2n1 (stereo not drawn) with human mAChRM1 (Homo sapiens, UniProt P11229) - Agonist Activity Human M1 EC50?
Result string: inactive
